Target: T1, human beta CGRP (SEQ ID NO: 81) (human, not fully specified)
T1 peptide: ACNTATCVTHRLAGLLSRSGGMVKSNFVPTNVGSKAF
Assay: cell-based or functional assay
Quantity Name: IC50, CGRP-induced cAMP production, SK-N-MC cells (nM)

{"Binder": "lipocalin mutein SEQ ID NO: 23 (designed binder, biotinylated by NHS chemistry for capture in SPR) QDSTSDLIPAPPLSKVPLQQNFQDNQFHGKWYVVGWAGNTLLREDKDPIKMQAKIYELKEDRSYNVTWVYFADKKCNYHIETFVPGSQPGEFTLGLIKSYPGETPILVRVVSTNYNQHAMVFFKGVNQNREIFEIILYGRTKELTNELKENFIRFSKSLGLPENHIVFPVPIDQCIDGSAWSHPQFEK", "Measured Value": 0.2}
{"Binder": "lipocalin mutein SEQ ID NO: 25 (designed binder, biotinylated by NHS chemistry for capture in SPR) QDSTSDLIPAPPLSKVPLQQNFQDNQFHGKWYVVGWAGNTLLREDKDPIKMQAKIYELKEDRSYNVTWVYFADKKCNYHIETFVPGSQPGEFTLGTIKSYPGETPILVRVVSTNYNQHAMVFFKGVNQNREIFEIILYGRTKELTNELKENFIRFSKSLGLPENHIVFPVPIDQCIDGSAWSHPQFEK", "Measured Value": 0.19}

Values from patent US20190338002A1
